Data credit: PubChem BioAssay

target: E3 ubiquitin-protein ligase XIAP (Homo sapiens) (UniProt P98170); experiment: small molecules binding XIAP protein – biophysical, small-molecule microarray, fluorescence 635 nm, primary screen (AID 1181); settings: higher = more signal;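 also: score merges 667 nm emission and signal to noise over triplicate slides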
Sequence (P98170 whole entry, looked up): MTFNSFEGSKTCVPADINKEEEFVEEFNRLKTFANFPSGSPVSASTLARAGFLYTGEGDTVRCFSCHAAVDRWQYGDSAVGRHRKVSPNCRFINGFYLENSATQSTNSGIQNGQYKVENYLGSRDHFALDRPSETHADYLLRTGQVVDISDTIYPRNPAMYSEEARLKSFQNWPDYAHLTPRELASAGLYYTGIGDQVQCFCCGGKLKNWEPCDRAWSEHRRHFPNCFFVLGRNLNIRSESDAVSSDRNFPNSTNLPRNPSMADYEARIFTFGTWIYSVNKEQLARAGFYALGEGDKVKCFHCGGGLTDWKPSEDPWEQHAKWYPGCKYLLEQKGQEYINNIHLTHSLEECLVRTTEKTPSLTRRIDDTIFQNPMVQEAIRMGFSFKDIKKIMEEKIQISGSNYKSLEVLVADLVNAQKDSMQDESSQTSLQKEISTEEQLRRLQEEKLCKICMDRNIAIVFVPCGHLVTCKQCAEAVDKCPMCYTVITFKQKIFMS
Decide using composite z-score: a value greater than or equal to 0.04 is label 1, a smaller one is label 0.

See these solved cases before continuing.
COc1ccc([Si](C)(C)[C@@H]2[C@@H](CCO)O[C@]3(C(=O)N(Cc4cccc(NC(=O)[C@H](C)O)c4)c4ccccc43)[C@H]2C)cc1    label 1
O=c1cccc(-c2ccc([N+](=O)[O-])cc2)o1    label 1
CC1=C2[C@@H](CCc3ccccc3)OB(O)C[C@@H]2[C@@H]2C(=O)N(Cc3ccccc3)C(=O)[C@@H]2C1    label 0

We next turn to a different molecule, shown below.
Please tell me: is the molecule O=C1OCCC=C[C@H]2OC34C=CCN(Cn5nnc6ccccc65)C(=O)[C@H]3N(CCCO)C(=O)[C@@H]4C12 (stereo partly specified) at or over 0.04 in terms of composite z-score? label 0

* * *

target: Torsin-1A (Homo sapiens) (UniProt O14656); experiment: TOR1A wild-type binding on microarray – cell lysate, small-molecule microarray, lysate, 635/667 nm, primary screen (AID 1149); conditions: COS7 hTOR1A-WT lysate, 635 nm fluorescence, higher = more signal
Sequence (O14656 whole entry, looked up): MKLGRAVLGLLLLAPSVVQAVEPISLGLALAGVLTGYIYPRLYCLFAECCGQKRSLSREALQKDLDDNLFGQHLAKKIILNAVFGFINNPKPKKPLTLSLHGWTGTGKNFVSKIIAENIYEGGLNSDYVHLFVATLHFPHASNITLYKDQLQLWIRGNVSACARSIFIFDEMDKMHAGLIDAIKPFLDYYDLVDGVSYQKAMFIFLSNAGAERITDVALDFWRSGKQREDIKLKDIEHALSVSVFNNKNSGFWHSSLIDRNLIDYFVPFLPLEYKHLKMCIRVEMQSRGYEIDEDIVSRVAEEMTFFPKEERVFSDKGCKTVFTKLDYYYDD
The following molecules are shown together with reported composite z-score values.
Write the value as a bare number.

Consider the following illustrative entries.
C=CC[C@@]1(C(=O)NCCCOC)N=C(c2ccc(OCCCO)cc2)O[C@@H]1c1ccccc1N=[N+]=[N-]    -0.668
[N-]=[N+]=Nc1ccccc1[C@H]1OC(c2ccc(OCCCO)cc2)=N[C@@]1(Cc1ccccc1)C(=O)NCCN1CCOCC1    0.596
COc1ccc(CCNC(=O)[C@@]2(Sc3ccc(C)cc3)CC(=O)N(Cc3ccccc3C(F)(F)F)[C@@H]2c2ccc(CO)cc2I)cc1    -1.13
NCCCCCNC(=O)[C@@H]1C[C@@H]2C(=O)N[C@@H](CCCCN)C(=O)N2[C@@H]1c1ccc(O)cc1    0.811
COC(=O)[C@@]1(Cc2ccc(OC)cc2)[C@H]2c3cc(C(=O)N4CCCC4)n(CCc4c[nH]c5ccc(OC)cc45)c3C[C@H]2CN1C(=O)c1ccccc1    -0.0701

Sample CC(CO)N1C(=O)[C@]2(C)C3C(=O)OCCC/C=C\[C@H]3OC23C=CCN(c2ccc(Cl)cc2)C(=O)[C@@H]13 (stereo not given in full) — what was its composite z-score? -0.775

Also check COc1ccc([Si](C)(C)[C@H]2[C@H](CC(=O)N(CCO)Cc3ccccc3)O[C@@]3(C(=O)N(C)c4c(Br)cc(C)cc43)[C@@H]2C)cc1 2.12

Also check COCCOC(=O)N1C(=O)[C@@]2(c3cc(C#CC4=CCCCC4)ccc31)[C@H](c1ccccc1OCCO)N1[C@H](c3ccccc3)[C@H](c3ccccc3)OC(=O)[C@H]1[C@@H]2C(=O)N1CCN(c2ncccn2)CC1 0.0128

Also check CCOC(=O)[C@@H]1CCCCN1C(=O)C(=O)OC 0.188

Also check C=C(COC)/C(=C/C[C@H](OC(=O)c1ccncc1)c1ccc(CO)o1)c1cnc2ccccc2c1 0.299

Also check CCCCCCCCCCC(O)C1C=CC2C(=O)N(c3ccccc3)C(=O)C2N1Nc1ccc(C#N)cc1 (stereo not given) 0.225

Also check C=CC[C@]1(C(=O)N2CCCCC2)N=C(c2ccc(OCCCO)cc2)O[C@H]1c1ccccc1CN=[N+]=[N-] 0.0016

Also check CCOC(=O)C=Cc1cccc(C)c1O 0.299

Also check COCCCNC(=O)[C@@]1(CCC(=O)OC(C)(C)C)N=C(c2ccc(OCCCO)cc2)O[C@H]1c1ccccc1N=[N+]=[N-] 0.786

Also check O=C1OCCC/C=C\[C@H]2OC34C=CCN(c5ccc6ccccc6c5)C(=O)[C@H]3N(CCO)C(=O)[C@@H]4C12 (stereo not given in full) -0.427

Also check CC(C)N1C(=O)C[C@@](C(=O)NC2CC2)(c2ccc([N+](=O)[O-])cc2)[C@H]1c1ccc(CO)cc1 -1.39

Also check C=C(COC)C(=O)CC[C@@H](OC(C)=O)c1cccc(OCCO)c1 0.672

Also check CC(C)=C1C(=O)C(c2ccccc2)=C2CN3C(=O)N(CCc4ccccc4)C(=O)[C@]3(Cc3ccc(C(F)(F)F)cc3)[C@H]21 -0.0473

Also check CCCC=C(CCC)[C@@H](NP(=O)(c1ccccc1)c1ccccc1)c1ccc(-c2ccccc2)cc1 0.804

Also check Oc1ccc2cc[n+](Cc3cc4c(cc3Br)OCO4)cc2c1 -0.896
